Tested on: NCI-H322M lung
ASSAY METHOD TEXT: NCI-60 one-dose screen, 48 h
EXPERIMENTAL PARAMETERS: 10 µM unless noted
The panel holds about 83,000 compounds, 20% with a hit somewhere; the sample as a whole holds those more often. Activity calls are given as the source filed them. Rule for the calls: active = growth percent below 10; inactive = the rest.
Outcome codes: active, inactive

[[record]]
molecule = "O=C(CNC(=O)c1cccc2ccccc12)Nc1ccccc1Cc1ccccc1"
label_class = "inactive"

[[record]]
molecule = "Cc1cc2ccccn2c1C(=O)c1ccc(C(=O)c2ccccc2)cc1"
label_class = "inactive"

[[record]]
molecule = "CC[C@@H](C)/C=C(C)/C=C/C(O)=C1\\C(=O)N[C@@H](Cc2ccc(OC(=O)[C@@](OC)(c3ccccc3)C(F)(F)F)cc2)C1=O"
label_class = "inactive"

[[record]]
molecule = "C[C@H]1O[C@@H](O[C@H]2[C@@H](O)C[C@H](O[C@H]3[C@@H](O)C[C@H](O[C@H]4CC[C@]5(C)C6CC[C@]7(C)[C@@H](C8=CC(=O)OC8)CC[C@]7(O)C6CC[C@@H]5C4)O[C@@H]3C)O[C@@H]2C)C[C@H](O)[C@@H]1O (stereo not given in full)"
label_class = "active"

[[record]]
molecule = "O=C(O)c1ccc2cccnc2c1O"
label_class = "inactive"

[[record]]
molecule = "[N-]=[N+]=NCc1cccc(/C(O)=C/C(=O)C(=O)O)c1"
label_class = "inactive"

[[record]]
molecule = "N[C@H](CS)C(=O)O"
label_class = "inactive"

[[record]]
molecule = "Cc1csc(C#Cc2cncc(O)c2)n1"
label_class = "inactive"

[[record]]
molecule = "Nc1nc(Nc2ccccc2SSc2ccccc2Nc2nc(N)nc(-c3cccc(Cl)c3)n2)nc(-c2cccc(Cl)c2)n1"
label_class = "inactive"

[[record]]
molecule = "CC1c2ccccc2-c2ccccc2N1C (stereo not given)"
label_class = "inactive"


----------
Tested on: 786-0 renal
ASSAY METHOD TEXT: NCI-60 one-dose screen, 48 h
EXPERIMENTAL PARAMETERS: 10 µM unless noted
The panel holds about 83,000 compounds, 20% with a hit somewhere; the sample as a whole holds those more often. Calls of active or inactive are those of the source. How the source made its calls: active means growth percent below 10; inactive means the rest.
Outcome codes: 1 (yes) = active, 0 (no) = inactive

[[record]]
compound = "FC(F)(F)c1ccc(-c2cnc(-c3nn[nH]n3)nc2NC2CCCCCC2)cc1"
label_class = "0 (no)"

[[record]]
compound = "O=C(N/N=C/c1ccc(Cl)cc1Cl)c1ccccc1Nc1cccc(C(F)(F)F)c1"
label_class = "0 (no)"

[[record]]
compound = "O=C1/C=C/[C@@H](O)[C@@H]2C[C@@H](O)C[C@H]2/C=C/CCC[C@H](CO)O1"
label_class = "1 (yes)"

[[record]]
compound = "COc1cc(/C=N/NC(=O)c2ccc(C(F)(F)F)nc2Nc2cc(Cl)ccc2C)cc(OC)c1OC"
label_class = "0 (no)"

[[record]]
compound = "CSc1nc2nc3c(nc2c(=O)n1C)C(=O)c1ccccc1C3=O"
label_class = "1 (yes)"

[[record]]
compound = "COc1cc(/C=C\\C(C)=N\\Nc2ccccc2)ccc1O"
label_class = "0 (no)"

[[record]]
compound = "C(=C1c2ccccc2-c2ccccc21)c1ccccn1"
label_class = "0 (no)"

[[record]]
compound = "O=CN1N=C(c2ccc(Cl)cc2)CC1c1cccc(Nc2ccnc3cc(Cl)ccc23)c1 (centres undefined)"
label_class = "0 (no)"

[[record]]
compound = "O=C1Nc2ccc(C(=O)O)c(O)c2C1=O"
label_class = "0 (no)"

[[record]]
compound = "O=C1N=C(N2CCOCC2)S/C1=C\\c1cn(-c2ccccc2)nc1-c1ccccc1"
label_class = "0 (no)"

[[record]]
compound = "COc1cc(C2=NN(C=O)C(c3cccc(Nc4ccnc5cc(Cl)ccc45)c3)C2)cc(OC)c1OC (centres undefined)"
label_class = "0 (no)"

[[record]]
compound = "O=C(CN1CCN(c2ccc(Cl)cc2)CC1)N1CCN(c2nnc(-c3ccc(Cl)cc3)c(-c3ccc(Cl)cc3)n2)CC1"
label_class = "0 (no)"

[[record]]
compound = "Oc1c(N=Nc2nn[nH]n2)ccc2ccccc12"
label_class = "0 (no)"

[[record]]
compound = "C[C@H]1O[C@@H](O[C@H]2[C@@H](O)C[C@H](O[C@H]3[C@@H](O)C[C@H](O[C@H]4CC[C@]5(C)C6C[C@@H](O)[C@]7(C)[C@@H](C8=CC(=O)OC8)CC[C@]7(O)C6CC[C@@H]5C4)O[C@@H]3C)O[C@@H]2C)C[C@H](O)[C@@H]1O (some centres undefined)"
label_class = "1 (yes)"

[[record]]
compound = "COc1cnc2c(c1)C(=O)c1c-2n(CCCNC(C)C)c(=O)c2cc(F)ccc12"
label_class = "1 (yes)"

[[record]]
compound = "[N-]=[N+]=NCc1ncc(-c2ccc(C(F)(F)F)cc2)c(NC2CCCCCC2)n1"
label_class = "0 (no)"

[[record]]
compound = "O=C(Nc1nc(-c2ccc(Cl)cc2)cs1)c1cc(-c2ccc(Br)cc2)nc2ccc(Cl)cc12"
label_class = "0 (no)"

[[record]]
compound = "NS(=O)(=O)N(c1cc(C(F)(F)F)cc(C(F)(F)F)c1)C1CCN(Cc2ccc(C(F)(F)F)cc2)CC1"
label_class = "0 (no)"

[[record]]
compound = "COc1ccc(-c2ccc(O)c(C(=O)/C=C/c3cc(OC)c(OC)c(OC)c3)c2)cc1"
label_class = "0 (no)"

[[record]]
compound = "CN1CCN(CCCCCN=c2cc3c(=O)n(CCCCCN4CCN(C)CC4)c(=O)c4c(NCCCCCN5CCN(C)CC5)cc5c(O)n(CCCCCN6CCN(C)CC6)c(=O)c2c5c4-3)CC1"
label_class = "0 (no)"

[[record]]
compound = "COC(=O)c1c(NC(=O)CSc2nnnn2-c2ccc(OC)cc2)sc(C)c1C"
label_class = "0 (no)"

[[record]]
compound = "O=C(COc1ccc(/C=C2\\Oc3ccc4ccccc4c3C2=O)cc1)c1ccc([N+](=O)[O-])cc1"
label_class = "0 (no)"

[[record]]
compound = "Nc1nc2c(c(=O)[nH]1)C1(C(=O)Nc3ccccc31)c1c(nc(N)[nH]c1=O)N2"
label_class = "0 (no)"

[[record]]
compound = "CC(=O)c1ccc(NS(=O)(=O)c2ccc([N+](=O)[O-])cc2)cc1"
label_class = "0 (no)"

[[record]]
compound = "COC(=O)N/N=C/c1coc2ccc(Cl)cc2c1=O"
label_class = "0 (no)"

[[record]]
compound = "Cc1cc(=O)[nH]c(/C(=N/Nc2ccccc2)C(=O)c2ccc(Cl)cc2)n1"
label_class = "0 (no)"

[[record]]
compound = "CNNc1ncnc2c1cnn2-c1ccc(S(N)(=O)=O)cc1"
label_class = "0 (no)"

[[record]]
compound = "COc1ccc2ncccc2c1Cc1c(OC)ccc2ncccc12"
label_class = "0 (no)"

[[record]]
compound = "Nc1nc(Nc2ccccc2SSc2ccccc2Nc2nc(N)nc(C(Cl)(Cl)Cl)n2)nc(C(Cl)(Cl)Cl)n1"
label_class = "0 (no)"

[[record]]
compound = "O=C(O)c1ccc2cccnc2c1O"
label_class = "1 (yes)"

[[record]]
compound = "Cc1cc(-c2ccccc2)cc(C)n1"
label_class = "0 (no)"

[[record]]
compound = "O=C1Nc2ccc(Cl)cc2/C1=C/c1cccs1"
label_class = "0 (no)"

[[record]]
compound = "O=C1CNc2cc(Cl)ccc2N1"
label_class = "0 (no)"

[[record]]
compound = "COc1cc(/C=C2\\CN(S(=O)(=O)c3ccc(C)cc3)C/C(=C\\c3cc(CN4CCOCC4)c(O)c(OC)c3)C2=O)cc(CN2CCOCC2)c1O"
label_class = "1 (yes)"

[[record]]
compound = "CC(C)N(Cc1ccccc1)c1c(S)ssc1=S"
label_class = "0 (no)"

[[record]]
compound = "COc1cnc2c(c1)C(=O)c1c-2n(CCCN2CCCC2)c(=O)c2cc(F)ccc12"
label_class = "1 (yes)"

[[record]]
compound = "CCCCCc1c(C)[nH]c(/C=C2\\N=C(c3ccc[nH]3)C=C2Oc2ccccc2)c1C"
label_class = "1 (yes)"

[[record]]
compound = "COc1cnc2c(c1)C(=O)c1c-2n(CCCN2CCC(O)CC2)c(=O)c2cc(F)ccc12"
label_class = "1 (yes)"

[[record]]
compound = "CCC(=O)Nc1cc2c(cc1Cl)-c1ccccc1C2"
label_class = "0 (no)"


----------
System: HOP-62 NSCLC
ASSAY METHOD TEXT: NCI-60 one-dose screen, 48 h (100 = growth as untreated, 0 = no growth, -100 = all killed)
EXPERIMENTAL PARAMETERS: 10 µM unless noted
Compounds without any hit were thinned out: in the full panel of roughly 83,000, 20% have a hit. Calls of active or inactive are those of the source. How the source made its calls: active means growth percent below 10; inactive means the rest.
REPORTED PROPERTY: growth

[[record]]
compound = "Cc1ccc(S(=O)(=O)NCCN2c3nc4ccccc4cc3Sc3cc4ccccc4nc32)cc1"
reported_property = "growth"
result = "55.8% (inactive)"

[[record]]
compound = "COc1ccc(C2CC(c3ccc(Nc4ccnc5cc(Cl)ccc45)cc3)=NN2C(C)=O)cc1 (stereo unspecified)"
reported_property = "growth"
result = "89.4% (inactive)"

[[record]]
compound = "COc1ccc(N2CCN(CC(=O)N3CCN(c4nnc(-c5ccccc5)c(-c5ccccc5)n4)CC3)CC2)cc1"
reported_property = "growth"
result = "64.7% (inactive)"

[[record]]
compound = "N#Cc1c(-c2ccccc2)cc(-c2ccccc2)n(CCCCCCC(=O)O)c1=O"
reported_property = "growth"
result = "94.4% (inactive)"

[[record]]
compound = "COc1ccc(-c2c3c(N)nc(-c4ccncc4)nc3nc3c2c(C)nn3-c2ccccc2)cc1"
reported_property = "growth"
result = "62.6% (inactive)"

[[record]]
compound = "CC1CN(CC(O)c2ccc(Br)cc2)CCO1 (stereo unspecified)"
reported_property = "growth"
result = "108% (inactive)"

[[record]]
compound = "COP(=O)(OC)C(c1ccccc1)(c1ccccc1)c1ccccc1"
reported_property = "growth"
result = "93.8% (inactive)"

[[record]]
compound = "COc1ccc2c(c1)CC/C(=C\\c1ccc(OCC(=O)Nc3nc4ccccc4s3)cc1)C2=O"
reported_property = "growth"
result = "83.2% (inactive)"

[[record]]
compound = "Cc1cc(Cl)ccc1Nc1nc(C(F)(F)F)ccc1C(=O)N/N=C/c1ccc(Cl)cc1"
reported_property = "growth"
result = "-61.2% (active)"

[[record]]
compound = "COc1cc(/C=C\\C(C)=N\\Nc2ccccc2)ccc1O"
reported_property = "growth"
result = "67.5% (inactive)"

[[record]]
compound = "Cc1ccc(C2=NNC(c3sc(Cl)nc3Cl)C2)cc1 (stereo unspecified)"
reported_property = "growth"
result = "107% (inactive)"

[[record]]
compound = "OC(c1ccccc1)C(NCc1ccccc1)c1ccccc1 (stereo unspecified)"
reported_property = "growth"
result = "90.5% (inactive)"

[[record]]
compound = "COc1cc(/C=C/c2cc(/C=C/c3ccc(O)c(OC)c3)n(C(=O)c3ccc(Cl)cc3)n2)ccc1O"
reported_property = "growth"
result = "20.3% (inactive)"

[[record]]
compound = "Cc1ccc(NC(=O)c2sc3nc4c(cc3c2N)C(=O)CCC4)cc1"
reported_property = "growth"
result = "114% (inactive)"

[[record]]
compound = "CCOC(=O)C(C(=O)OCC)C1CCCCC1"
reported_property = "growth"
result = "107% (inactive)"

[[record]]
compound = "CC(=O)OC1Oc2cc(C)c(C)cc2-c2oc(=O)c(-c3ccccc3)cc21 (stereo unspecified)"
reported_property = "growth"
result = "48% (inactive)"

[[record]]
compound = "N#Cc1c(NC(=O)c2ccco2)[n+]([O-])c2ccccc2[n+]1[O-]"
reported_property = "growth"
result = "82.9% (inactive)"

[[record]]
compound = "C/C(=C\\CCc1ccoc1)CC/C=C(\\C)CCCN1CCOCC1"
reported_property = "growth"
result = "69.1% (inactive)"

[[record]]
compound = "COc1cnc2c(c1)C(=O)c1c-2n(CCCN2CCNCC2)c(=O)c2cc(F)ccc12"
reported_property = "growth"
result = "-8.55% (active)"

[[record]]
compound = "CCOC(=O)c1sc(NC(=O)COc2cccc(/C=C3\\Cc4ccc(Cl)cc4C3=O)c2)nc1C"
reported_property = "growth"
result = "107% (inactive)"

[[record]]
compound = "O=C1C(=O)c2c(nc3ccc(Cl)cn23)-c2ccccc21"
reported_property = "growth"
result = "-87.9% (active)"

